Tested on: MDA-MB-435 melanoma
experimental details: NCI-60 one-dose screen, 48 h (100 = growth as untreated, 0 = no growth, -100 = all killed)
condition summary: 10 µM
Protocol: Growth inhibition of the MDA-MB-435 human Melanoma tumor cell line is measured as a screen for anti-cancer activity. Cells are grown in 96 well plates and exposed to the test compound for 48 hours. Compounds are tested at a single concentration, which is 10^-5 M for most compounds. The reported endpoint is percent growth (GI% or GIPRCNT), where numbers from 0 - 100% represent growth inhibition, and numbers from -100% - 0 represent cell death. […]
About 83,000 compounds went through this panel and 20% of them were active in at least one assay; those are over-represented in the sample as a whole.
value kind: growth (%)

C/C(=N\N=C\c1ccc(N(C)C)cc1)c1ccc2c(c1)Nc1ccccc1S2 51.1
Oc1ccc(/C=C2\CCCc3cc4ccc(O)cc4[o+]c32)c(O)c1 -40.7
CCOc1ccc2ncc(C#Cc3cncc(C(=O)Nc4ccc(CN5CCN(C)CC5)c(C(F)(F)F)c4)c3)n2n1 -74.2
c1ccc(C(=C(c2ccc(OCCN3CCCCC3)cc2)c2ccc(OCCN3CCCCC3)cc2)C2CCCC2)cc1 -98.5
CCOC(=O)CNC(=O)CN(Cc1ccccc1)C(=O)[C@@]1(C)CCC[C@]2(C)[C@H]3CC4C(C(C)C)=C[C@]3(CC[C@H]21)[C@@H]1C(=O)CCC(=O)[C@H]41 70.6
